Tested on: NCI/ADR-RES
Experiment: NCI tumour cell line growth inhibition, 48 h
The source made the active and inactive calls. No stated cut-off is given here; in the data, active = GI50 up to about 1.1 µM and inactive = higher.
ASSAY METRIC: GI50

[ask] Return GI50 for the following compound: c1ccc(C2C3=C(CCCC3)Nc3nnnn32)cc1 (stereo unspecified)
[reply] 98.9 µM (inactive)

[ask] Return GI50 for the following compound: CC1(C)CC(=O)c2c([nH]c(=S)c(C#N)c2-c2ccc(Br)cc2)C1
[reply] > 100 µM (inactive)

[ask] Return GI50 for the following compound: O=C1CSC(c2cccs2)N1c1nc2cc3sc(N4C(=O)CSC4c4cccs4)nc3cc2s1 (stereo unspecified)
[reply] 43.1 µM (inactive)

[ask] Return GI50 for the following compound: O=C1c2cccc3cccc(c23)C(=O)N1CCCNCCCCNCCCN1C(=O)c2cccc3cccc(c23)C1=O
[reply] 14.5 µM (inactive)

[ask] Return GI50 for the following compound: CCOC(=O)N1N(c2ccccc2)C(=O)C1(c1ccccc1)c1ccccc1
[reply] > 100 µM (inactive)

[ask] Return GI50 for the following compound: CC(C)CC(N)C(=O)O (stereo unspecified)
[reply] > 100 µM (inactive)
